measured target: unphosphorylated STAT3 monomer (uSTAT3) SH2 domain (Homo sapiens, UniProt P40763)
Sequence (P40763 whole entry, the tested form may be a part): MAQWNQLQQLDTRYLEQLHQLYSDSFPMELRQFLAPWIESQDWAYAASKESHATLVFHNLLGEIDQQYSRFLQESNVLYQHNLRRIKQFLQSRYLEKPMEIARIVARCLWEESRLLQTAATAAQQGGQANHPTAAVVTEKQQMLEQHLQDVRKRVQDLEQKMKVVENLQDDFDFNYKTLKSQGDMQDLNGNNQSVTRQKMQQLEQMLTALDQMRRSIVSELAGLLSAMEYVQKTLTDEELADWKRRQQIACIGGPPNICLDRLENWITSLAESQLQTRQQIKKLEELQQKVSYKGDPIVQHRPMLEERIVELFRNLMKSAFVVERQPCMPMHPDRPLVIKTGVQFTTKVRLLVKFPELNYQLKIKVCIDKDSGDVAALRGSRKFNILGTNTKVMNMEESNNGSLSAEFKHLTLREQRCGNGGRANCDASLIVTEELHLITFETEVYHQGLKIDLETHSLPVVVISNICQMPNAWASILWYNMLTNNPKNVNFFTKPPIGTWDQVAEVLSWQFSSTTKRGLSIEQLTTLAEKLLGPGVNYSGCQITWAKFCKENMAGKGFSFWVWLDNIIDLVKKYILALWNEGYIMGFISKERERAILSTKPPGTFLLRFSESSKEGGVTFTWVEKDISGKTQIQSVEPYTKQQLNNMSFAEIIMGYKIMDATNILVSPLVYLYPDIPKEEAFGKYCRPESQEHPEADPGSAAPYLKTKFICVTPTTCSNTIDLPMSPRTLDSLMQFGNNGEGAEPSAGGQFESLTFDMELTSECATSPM
procedure summary: Fluorescence polarisation assay for the inhibition of STAT3 dimerisation
Assay type: binding
experimental context: 350 nM uSTAT3, 10 nM FAM-pYLPQTV, 100 μM ligand; average of triplicate
Please respond with reported inhibition at 100 µM for every item in the list.
Write it as a number; the unit % goes unstated.

COC(=O)c1ccc(N(C)S(=O)(=O)c2cc(C(=O)Nc3ccc(OCCN4CCOCC4)cc3)sc2-c2ccc(C#N)cc2)cc1 [Compound 16] has a reported inhibition at 100 µM of 47.9

Per the records, this compound ( COC(=O)c1ccc(N(C)S(=O)(=O)c2cc(C(=O)NCc3ccc(CN4CCCCC4)cc3)sc2-c2ccc(N3CCCCC3)cc2)cc1 [Compound 2] ) has inhibition at 100 µM equal to 51.2

Value of measured inhibition at 100 µM for the entry COC(=O)c1ccc(N(C)S(=O)(=O)c2cc(C(=O)NCc3ccc(N4CCOCC4)cc3)sc2Br)cc1 [Compound 24] : 9.42

For COC(=O)c1ccc(N(C)S(=O)(=O)c2cc(C(=O)Nc3cccc(N4CCOCC4)c3)sc2Br)cc1 [Compound 22] the compound record lists inhibition at 100 µM as 11.7

Reported inhibition at 100 µM ( COC(=O)c1ccc(N(C)S(=O)(=O)c2cc(C(=O)Nc3ccc(N4CCCCC4)cc3)sc2Br)cc1 [Compound 21] ) = 22.7

Sure, the documented inhibition at 100 µM for COC(=O)c1ccc(N(C)S(=O)(=O)c2cc(C(=O)Nc3ccc4c(ccn4Cc4ccccc4)c3)sc2Br)cc1 [Compound 40] is 47.1

Data origin: patent US20200216432A1
